assay comment: JC-1 mitochondrial signal, unstimulated HepG2 cells – cell-based, JC-1 fluorescence, 24 h, 100 nL compound, profiling panel (AID 1167); further: test concentration not given here
test settings: HepG2 mitochondrial potential, higher = more signal
quantity measured: z-score

Here are 5 compounds together with their reported answers.
C=CC[C@H](OC(=O)Nc1ccc(SC)cc1)c1ccc(O)c2ccccc12
-3.26
NC(=O)NCC#Cc1ccc2c(c1)[C@]1(C(=O)N2)[C@H](c2ccccc2OCCO)N2[C@H](c3ccccc3)[C@H](c3ccccc3)OC(=O)[C@H]2[C@@H]1C(=O)NC[C@H](O)c1ccccc1
-0.159
CC(C)(C)OC(=O)COc1cccc(C(=O)CCN2CCOCC2)c1
-1.01
COc1cc2c(cc1O)C(C1CC1)N(Cc1cccc(OC(F)(F)F)c1)CC2 (stereo unspecified)
-2.84
COc1ccc(CCNC(=O)[C@@]2(c3ccc([N+](=O)[O-])cc3)CC(=O)N(C3CCCCC3)[C@@H]2c2ccc(CO)cc2)cc1
2.85

Alright, here's another compound for you.
### Prompt # query: z-score of entry "COc1cc2c(cc1O)C=[N+](Cc1sc3ccccc3c1Cl)CC2"
### Response -1.06

====

Items are presented alongside their recorded composite z-score.
System: Human papillomavirus type 1a protein E7 (residues 44-93)
assay comment: small molecules binding HPV E7 44-93 – biochemical, small-molecule microarray, residues 44-93, 635 nm fluorescence, primary screen (AID 1108);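 further: E7 fragment applied at 1 µg/mL in TBST for 1 h at 4 C; score combines spot fluorescence with its signal to noise ratio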
test settings: fluorescence 635 nm, higher = more signal
Would you mind answering with just the numeric figure?

Completed entries (count: 3):
COc1ccc(C#Cc2ccc3c(c2)[C@]2(C(=O)N3)[C@H](C(=O)O)[C@H]3C(=O)O[C@H](c4ccccc4)[C@H](c4ccccc4)N3[C@@H]2c2ccc(O)cc2)cc1
0.78
CC(C)C(CO)N1C(=O)[C@@H]2C3C(=O)OCCC/C=C\[C@H]3OC23C=CCN(c2ccc4ccccc4c2)C(=O)[C@@H]13 (some centres not stated)
-0.812
COC(=O)c1c(CC[C@@H](CO)NC(=O)N[C@@H](C)Cn2cc(-c3ccccn3)nn2)oc(C(C)=O)c1C(=O)OC
0.683

### Prompt Please report the recorded composite z-score for CC1CC/C=C\[C@H]2OC34C=CCN(c5ccc(Cl)cc5)C(=O)[C@H]3N(C(C)CO)C(=O)[C@]4(C)C2C(=O)O1 (some centres not stated) .
### Response -0.815

### Prompt Moving on to the next compound: "C=CC[C@H](OC(=O)Nc1ccc(SC)cc1)c1ccc(O)c2ccccc12"
### Response 1.4

### Prompt Repeat with O=C1C2C=CC(C(O)c3cccc(O)c3)N(Nc3ccc([N+](=O)[O-])cc3)C2C(=O)N1c1ccccc1 (configuration not stated)
### Response 0.939

### Prompt Same thing, different compound: "C=CC[C@]1(C(=O)N2CCCCC2)N=C(c2ccc(OCCCO)cc2)O[C@H]1c1ccccc1CN=[N+]=[N-]"
### Response 1.42

====

Test system: glycogen synthase kinase-3 (GSK3A per assay name; protocol says GSK3B)
assay comment: compounds binding glycogen synthase kinase-3 – biochemical, small-molecule microarray, 635 nm fluorescence, GSK3A, primary screen (AID 1103); further: the record names both GSK3A and GSK3B
test settings: fluorescence 635 nm, higher = more signal
composite z-score values, listed per item
Would you mind answering with just the numeric figure?

Worked cases, composite z-score given:
CC1=C2[C@@H](CCc3ccccc3)OB(O)C[C@@H]2[C@@H]2C(=O)N(Cc3ccccc3)C(=O)[C@@H]2C1
0.717
CC1CC/C=C\[C@H]2OC34C=CCN(C(C)C)C(=O)[C@H]3N(CCO)C(=O)[C@@H]4C2C(=O)O1 (stereo partly drawn)
-0.979
COC(=O)[C@@]1(Cc2ccc(F)cc2)[C@H]2c3cc(C(=O)N(C)C)n(Cc4ccc(OC(F)(F)F)cc4)c3C[C@H]2CN1C(=O)c1ccccc1
0.22
CCCCCC1=C2CNC(C)(C(=O)OC)C=C2C(C)C1=O (stereo not drawn)
-1.1
C=CC[C@@H](OC(=O)Nc1ccc(OC)cc1)c1ccc(O)c(F)c1
-0.363
Cn1cccc1C(O)C1C=CC2C(=O)N(c3ccccc3)C(=O)C2N1Nc1ccccc1 (stereo not drawn)
1.27

### Prompt So what's the measured composite z-score for this one? "CC(C)[Si]1(C(C)C)OCc2cc(C3CC3)nc(-c3ccc(Oc4ccccc4)cc3)c21"
### Response -0.964

### Prompt Follow-up entry: "CC(C)=C1C(=O)C(c2ccccc2)=C2CN3C(=O)N(CCc4ccccc4)C(=O)[C@]3(Cc3ccc(C(F)(F)F)cc3)[C@H]21"
### Response -0.0628

====

target entity: Neurogenic locus notch homolog protein 3 (Homo sapiens)
assay comment: small molecules binding NOTCH3 protein – biochemical, 635/667 nm fluorescence, primary screen (AID 1096)
test settings: small-molecule microarray, 635 nm fluorescence, higher = more signal
Labels assigned by composite z-score range: low: < -0.1; mid: ≥ -0.1 and < 0.2; high: ≥ 0.2

CC1CC/C=C\[C@H]2OC34C=CCN(Cc5ccccc5)C(=O)[C@H]3N(C(CO)C(C)C)C(=O)[C@@H]4C2C(=O)O1 (some centres not stated)
low
C=C[C@@H](CO)N(Cc1ccc(OC)cc1)S(=O)(=O)c1ccc(Br)cc1
low
CCOC(=O)[C@@H]1CCCCN1C(=O)C(=O)OC
high
C=CC[C@H](OC(=O)Nc1ccc(SC)cc1)c1ccc(O)c2ccccc12
high
NC(=O)[C@H]1[C@@H]2C(=O)O[C@@H](c3ccccc3)[C@@H](c3ccccc3)N2[C@@H](c2ccc(OCCO)cc2)[C@]12C(=O)Nc1ccc(C#CCCO)cc12
mid

### Prompt Textbook exercise: identify the category of the molecule given here, CCCCCN1CC=CC23O[C@@H]4C=CCCOC(=O)C4[C@H]2C(=O)N(CCCCCCO)[C@@H]3C1=O (some centres not stated) , according to its measured value.
### Response low

### Prompt Check CC(C)C(CO)N1C(=O)[C@@H]2C3C(=O)OCCC/C=C\[C@H]3OC23C=CCN(c2ccc4ccccc4c2)C(=O)[C@@H]13 (some centres not stated) too.
### Response mid

====

assay comment: small molecules captured by biotinylated probe aFSTL3 – biochemical, small-molecule microarray, fluorescence 635/667, stem cell growth factor project, primary screen (AID 1064);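 further: measures binding of the biotinylated anti-FSTL3 antibody to printed compounds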
test settings: higher = more signal
Recorded composite z-score for the following compounds
Lab note: jot the number down without any unit.

C=CC[C@H](OC(=O)Nc1ccc(SC)cc1)c1ccc(O)c2ccccc12
0.0792

### Prompt Which value of composite z-score has been reported for "COCC(=C=CC[C@H](O)c1ccc(CO)o1)CCO" in the records?
### Response -0.254

### Prompt # repeat for "CCOC(=O)C[C@H]1[C@H](OC(=O)c2ccc(-c3ccccc3)cc2)[C@@H](NC(=O)CC(C)C)c2cc(OCCCO)ccc2N1C(=O)c1ccc2ccccc2n1"
### Response -0.459

### Prompt Same question, COc1cc(NN2C(C(O)c3ccc(N(C)C)cc3)C=CC3C(=O)N(c4ccccc4)C(=O)C32)cc(OC)c1OC (centres undefined) this time
### Response 0.817

====

Let's look at some compounds and their measured z-score.
assay comment: calcein-AM signal in unstimulated myeloma cells – cell-based, calcein-AM fluorescence, 48 h, PK04 Diversity Set, profiling panel (AID 1166);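 further: cells grown under basal conditions without added stimulus; test concentration not given here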
test settings: RPMI8226 myeloma viability, higher = more signal
Could you respond with only the numeric value?

Example results:
NCCCCCNC(=O)[C@H]1C[C@H]2C(=O)N3CCC[C@H]3C(=O)N2[C@H]1c1cccc(OCCO)c1
-0.881
CC(C)(C)OC(=O)CC[C@@]1(C(=O)NCC(O)CO)N=C(c2ccc(OCCCO)cc2)O[C@@H]1c1ccccc1CN=[N+]=[N-] (some centres not stated)
-0.34
CCN(CC)c1ccc(N2CC=CC34O[C@@H]5/C=C\CCCOC(=O)C5[C@H]3C(=O)N(C(C)CO)[C@@H]4C2=O)cc1 (some centres not stated)
0.403
CCCCN1CC=CC23O[C@@H]4/C=C\CCCOC(=O)C4[C@H]2C(=O)N(CCO)[C@@H]3C1=O (some centres not stated)
-0.711
O=C1OCCC=C[C@H]2OC34C=CCN(c5ccc6ccccc6c5)C(=O)[C@H]3N(CCCO)C(=O)[C@@H]4C12 (some centres not stated)
-0.556
C=CCNC(=O)[C@H]1[C@@H]2C(=O)O[C@@H](c3ccccc3)[C@@H](c3ccccc3)N2[C@@H](c2ccccc2OCCO)[C@]12C(=O)N(C(=O)OCCOC)c1ccc(C#CC3(O)CCCCCC3)cc12
-4.56

### Prompt Could you share which z-score value was measured for Cc1ccccc1C(O)C1C=CC2C(=O)NC(=O)C2N1Nc1ccccn1 (configuration not stated) ?
### Response -0.729

====

# composite z-score annotations
Test system: Sonic hedgehog protein (Shh)
assay comment: Sonic hedgehog microarray binding compounds – biochemical, small-molecule microarray, 635/667 nm fluorescence, primary screen (AID 1151);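 further: Shh protein binding to compounds spotted on small-molecule microarray slides; score combines spot fluorescence intensity with signal-to-noise across triplicate slides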
test settings: 635 nm fluorescence, higher = more signal
API doc: respond with a numeric literal and nothing else, no unit.

Example results:
CN1C2C=C(CCCO)C(C3C(=O)N(C(N)=O)C(=O)C32)C1C1CC1 (configuration not stated)
0.316
C=C(/C(=C/C[C@H](OC(=O)c1ccncc1)c1ccc(CO)o1)c1cnc2ccccc2c1)C(C)C
1.97
CCOC(=O)C[C@H]1[C@H](OC(=O)c2cc3ccccc3oc2=O)[C@@H](NC(=O)c2ccccc2)c2cc(OCCCO)ccc2N1C(=O)c1ccccc1
0.696
CC(C)[Si]1(C(C)C)OCc2cc(-c3ccc(-c4ccc(Cl)c(Cl)c4)o3)nc(-c3ccccc3)c21
-0.128
C=CCOC(=O)[C@@H]1[C@H]2C(=O)O[C@H](c3ccccc3)[C@H](c3ccccc3)N2[C@H](c2ccc(OCCOC(=O)[C@@H]3C[C@@H]4C(=O)N[C@@H](CCCC[N+](C)(C)C)C(=O)N4[C@@H]3c3ccc(O)cc3)cc2)[C@@]12C(=O)Nc1ccc(I)cc12
1.83
COCCCNC(=O)[C@@]1(Sc2ccc(C)cc2)CC(=O)N(C2Cc3ccccc3C2)[C@@H]1c1ccc(CO)cc1
-1.45

// moving on: another record for composite z-score
### Prompt Hello, I am looking for reported composite z-score with Sonic hedgehog protein (Shh) for "COC(=O)[C@]1(CCS(=O)(=O)c2ccccc2)N=C(c2ccc(OCCCO)cc2)O[C@@H]1c1ccccc1N=[N+]=[N-]" . Could you help?
### Response 2.09
